Would you kindly list growth for each of these compounds?
System: HOP-62 NSCLC
Test: NCI-60 one-dose screen, 48 h (100 = growth as untreated, 0 = no growth, -100 = all killed)
Conditions: 10 µM unless noted
This is part of a sample that, as a whole, favours compounds with a hit. Of some 83,000 tested, about 20% had one in any assay.
Answer in %, number only, no unit symbol.

Input line: Answer briefly: growth recorded on HOP-62 NSCLC for C=C1C(=O)O[C@H]2[C@H]1CC/C(COC(=O)NCc1c[nH]c3ccc(Br)cc13)=C\CC[C@@]1(C)O[C@@H]21
Output line: 58.5

Input line: Answer briefly: growth recorded on HOP-62 NSCLC for COc1cc(C2C3CC4CCCC[C@H]4N3[C@@]3(C(=O)Nc4cc(Cl)ccc43)C2C(=O)c2nc3ccccc3[nH]2)cc(OC)c1OC (stereo not given in full)
Output line: 90.1

Input line: Answer briefly: growth recorded on HOP-62 NSCLC for NS(=O)(=O)c1ccc(Cn2c(SCC(=O)N/N=C/c3ccccc3O)nc3ccccc3c2=O)cc1
Output line: 35.5

Input line: Answer briefly: growth recorded on HOP-62 NSCLC for COc1cc2nc(-c3ccc(Cl)cc3)cc(OCCCN3CCOCC3)c2cc1OC
Output line: 60.1

Input line: Answer briefly: growth recorded on HOP-62 NSCLC for NC1=NN=C(N)C1=Cc1cc2ccccc2n2nnnc12
Output line: 96.8

Input line: Answer briefly: growth recorded on HOP-62 NSCLC for Cc1ccc(-c2[nH][nH]c(=O)c2-c2nc3ccccc3s2)cc1
Output line: 99.2

Input line: Answer briefly: growth recorded on HOP-62 NSCLC for C=C1C(=O)O[C@H]2[C@H]1CC/C(COC(=O)NCc1c[nH]c3ccc(Cl)cc13)=C\CC[C@@]1(C)O[C@@H]21
Output line: 60.5

Input line: Answer briefly: growth recorded on HOP-62 NSCLC for CN(C)CCC(=O)c1ccc([N+](=O)[O-])cc1
Output line: 98.6

Input line: Answer briefly: growth recorded on HOP-62 NSCLC for O=C(CNCCN1CCOCC1)N1c2cccc3cccc(c23)N(C(=O)CNCCN2CCOCC2)C1c1cn(-c2ccccc2)nc1-c1cccc([N+](=O)[O-])c1
Output line: 89.7

Input line: Answer briefly: growth recorded on HOP-62 NSCLC for COc1cc(/C=C\C(=O)O)ccc1OCc1ccccc1
Output line: 99
